Measured activity at 50 µM values are reported for all entries that follow.
- test-system: p75^NTR receptors (PC12 cells) (Rattus norvegicus)
- Construct: endogenous in cells; host or cells: PC12 cells
- method-notes: Basic screening assay: binding of 125I-BDNF to PC12 cells
- measurement-context: Table 1; test compound 50 μM; 0.5 nM 125I-BDNF; PC12 cells; 2 h at 4° C.; specific binding as percent of control; read-out: BDNF Activity % Maximal Binding
quantity-kind: activity at 50 µM

O=C1NC(=S)S/C1=C/c1ccc(-c2ccc([N+](=O)[O-])cc2Cl)o1    0 to 10%
COc1cc([N+](=O)[O-])ccc1-c1ccc(/C=C2/SC(=S)N(C)C2=O)o1    40 to 50%
CCN1C(=O)/C(=C/c2ccc(-c3ccc([N+](=O)[O-])cc3)o2)NC1=S    30 to 40%
COc1ccc(-c2ccc(/C=C3\SC(=S)NC3=O)o2)cc1[N+](=O)[O-]    0 to 10%
Cc1cc(-c2ccc(C=C3SC(=S)N(CC(=O)O)C3=O)o2)ccc1[N+](=O)[O-]    0 to 10%
Cc1ccc(C(=O)O)cc1-c1ccc(/C=C2/NC(=O)NC2=O)o1    0 to 10%
Cc1cc([N+](=O)[O-])ccc1-c1ccc(C=C2SC(=S)N(CC(=O)O)C2=O)o1    20 to 30%
Cc1cccc(N2NC(=O)C(=Cc3ccc(-c4ccc(S(N)(=O)=O)cc4)o3)C2=O)c1    0 to 10%
COC(=O)c1ccc(-c2ccc(/C=C3/NC(=O)N(Cc4ccc(F)cc4)C3=O)o2)c(C)c1    30 to 40%
Cc1ccc([N+](=O)[O-])cc1-c1ccc(/C=C2/SC(=S)NC2=O)o1    0 to 10%
CCOC(=O)c1ccc(-c2ccc(/C=C3/NC(=O)N(c4ccccc4)C3=O)o2)cc1    30 to 40%
O=C1NC(=S)N/C1=C/c1ccc(-c2ccc([N+](=O)[O-])cc2Cl)o1    30 to 40%
COc1ccc(CN2C(=O)/C(=C\c3ccc(-c4ccc(S(N)(=O)=O)cc4)o3)SC2=S)cc1    20 to 30%

###

- test-system: p75^NTR receptors (PC12 cells) (Rattus norvegicus, UniProt P07174)
- Construct: endogenous in cells; host or cells: PC12 cells
- method-notes: Basic screening assay: binding of 125I-BDNF to PC12 cells
- measurement-context: Table 1; test compound 50 μM; 0.5 nM 125I-BDNF; PC12 cells; 2 h at 4° C.; specific binding as percent of control; read-out: BDNF Activity % Maximal Binding
compounds and their reported activity at 50 µM
quantity-kind: activity at 50 µM

O=C1NC(=O)/C(=C\c2ccc(-c3ccc([N+](=O)[O-])cc3Cl)o2)S1    10 to 20%
CCCCOC(=O)c1ccc(-c2ccc(/C=C3/SC(=S)N(CC(=O)O)C3=O)o2)cc1    0 to 10%
O=C(O)c1ccc(-c2ccc(/C=C3/NC(=O)N(c4cccc(Cl)c4)C3=O)o2)cc1Cl    10 to 20%
Cc1cc([N+](=O)[O-])ccc1-c1ccc(C=C2SC(=S)NC2=O)o1    0 to 10%
CCOC(=O)c1ccc(N2NC(=O)/C(=C/c3ccc(-c4cccc(C(=O)O)c4)o3)C2=O)cc1    40 to 50%
CN1C(=O)/C(=C/c2ccc(-c3ccc(S(N)(=O)=O)cc3)o2)SC1=S    30 to 40%
CCOC(=O)c1ccc(-c2ccc(/C=C3/C(=O)NN(c4cccc(C)c4)C3=O)o2)cc1    40 to 50%
O=C1NC(=S)S/C1=C/c1ccc(-c2ccc(Cl)c([N+](=O)[O-])c2)o1    30 to 40%

###

- Test system: p75
- method-notes: Neurotrophin-receptor crosslinking assay, 125I-BDNF (Example 3)
- Type: binding
- measurement-context: p75 band counted on gamma counter
quantity-kind: 125I-BDNF X-linking p75 band (% binding)

Cc1cc(-c2ccc(C=C3C(=O)NC(=S)NC3=O)o2)c(C)c([N+](=O)[O-])c1 [Compound 3]    XXXXX (0 < XXXXX < 10)
O=C(O)c1cc(-c2ccc(/C=C3\NC(=O)N(c4cccc(Cl)c4)C3=O)o2)ccc1Cl [Compound 43]    XXXXX (0 < XXXXX < 10)
O=C1NC(=S)NC(=O)C1=Cc1ccc(-c2ccc(C(=O)O)c(Cl)c2)o1 [Compound 65]    XXXXX (0 < XXXXX < 10)

###

- Tested on: p75
- method-notes: Neurotrophin-receptor crosslinking assay, 125I-BDNF (Example 3)
- Format: binding
- measurement-context: crosslinked sample counted on gamma counter
quantity-kind: 125I-BDNF X-linking Sample (% binding)

O=C1NC(=S)NC(=O)C1=Cc1ccc(-c2ccc(C(=O)O)c(Cl)c2)o1    XXXXX (0 < XXXXX < 10)
Cc1cc(-c2ccc(C=C3C(=O)NC(=S)NC3=O)o2)c(C)c([N+](=O)[O-])c1    XXXXX (0 < XXXXX < 10)

###

- test-system: p75^NTR receptors (PC12 cells) (Rattus norvegicus)
- Construct: endogenous in cells; host or cells: PC12 cells
- method-notes: Basic screening assay: binding of 125I-BDNF to PC12 cells
- measurement-context: Table 2; test compound 50 μM; 0.5 nM 125I-BDNF; PC12 cells; 2 h at 4° C.; specific binding as percent of control; read-out: BDNF Activity % Maximal Binding
activity at 50 µM reference
quantity-kind: activity at 50 µM

Cc1cc(C(=O)O)ccc1-c1ccc(/C=C2\SC(=O)N(C)C2=O)o1    0 to 10%
CCOC(=O)c1ccc(-c2ccc(/C=C3/SC(=S)N(CC(=O)O)C3=O)o2)cc1    0 to 10%
O=C(O)CCCN1C(=O)C(=Cc2ccc(-c3cccc([N+](=O)[O-])c3)o2)SC1=S    40 to 50%
NS(=O)(=O)c1cccc(-c2ccc(/C=C3/SC(=S)N(CC(=O)O)C3=O)o2)c1    0 to 10%
CCN1C(=O)S/C(=C/c2ccc(-c3ccc(C(=O)O)cc3)o2)C1=O    0 to 10%

###

- test-system: p75^NTR receptors (PC12 cells) (Rattus norvegicus)
- Construct: endogenous in cells; host or cells: PC12 cells
- Sequence (P07174 30-425): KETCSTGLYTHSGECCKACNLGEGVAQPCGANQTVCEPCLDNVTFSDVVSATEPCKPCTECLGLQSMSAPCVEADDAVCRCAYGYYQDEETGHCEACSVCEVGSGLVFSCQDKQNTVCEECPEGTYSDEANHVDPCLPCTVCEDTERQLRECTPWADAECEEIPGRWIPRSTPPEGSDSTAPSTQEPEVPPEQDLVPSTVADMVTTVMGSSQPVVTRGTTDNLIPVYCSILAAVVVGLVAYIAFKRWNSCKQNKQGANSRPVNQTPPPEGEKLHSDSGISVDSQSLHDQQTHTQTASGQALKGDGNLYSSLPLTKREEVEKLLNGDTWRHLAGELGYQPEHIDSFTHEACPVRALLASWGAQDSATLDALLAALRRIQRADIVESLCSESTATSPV
- Sequence (P23560 129-247 partner): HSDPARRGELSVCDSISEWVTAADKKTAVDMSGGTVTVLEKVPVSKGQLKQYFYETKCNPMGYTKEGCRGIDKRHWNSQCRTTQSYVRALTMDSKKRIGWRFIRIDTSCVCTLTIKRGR
- method-notes: Basic screening assay: binding of 125I-BDNF to PC12 cells
- measurement-context: Table 1; test compound 50 μM; 0.5 nM 125I-BDNF; PC12 cells; 2 h at 4° C.; specific binding as percent of control; read-out: BDNF Activity % Maximal Binding
quantity-kind: activity at 50 µM

COC(=O)C(C)N1C(=O)S/C(=C/c2ccc(-c3cc(C(=O)O)ccc3C)o2)C1=O (stereo not drawn)    10 to 20%
CC1=NN(c2ccc(F)cc2)C(=O)/C1=C\c1ccc(-c2ccc(C(=O)O)cc2)o1    30 to 40%
O=C(O)CCN1C(=O)C(=Cc2ccc(-c3ccc([N+](=O)[O-])cc3)o2)SC1=S    0 to 10%
CCCSC1=NC(=Cc2ccc(-c3ccc([N+](=O)[O-])cc3Cl)o2)C(=O)S1    40 to 50%
Cc1ccc(-c2ccc(/C=C3/SC(=S)N(CC(=O)O)C3=O)o2)cc1[N+](=O)[O-]    0 to 10%
Cc1ccc(C(=O)O)cc1-c1ccc(/C=C2/NC(=O)N(c3ccccc3)C2=O)o1    0 to 10%
Cc1ccc(N2NC(=O)C(=Cc3ccc(-c4ccc([N+](=O)[O-])cc4Cl)o3)C2=O)cc1C    0 to 10%
CCOC(=O)CN1C(=O)S/C(=C/c2ccc(-c3cc(C(=O)O)ccc3C)o2)C1=O    0 to 10%
O=C(O)c1cc(-c2ccc(/C=C3\NC(=O)N(c4cccc(Cl)c4)C3=O)o2)ccc1Cl    30 to 40%
CCOC(=O)CN1C(=O)S/C(=C\c2ccc(-c3ccc([N+](=O)[O-])cc3C)o2)C1=O    40 to 50%
COC(=O)CN1C(=O)S/C(=C\c2ccc(-c3ccc([N+](=O)[O-])cc3)o2)C1=O    30 to 40%
COCCN1C(=O)C(=Cc2ccc(-c3cccc([N+](=O)[O-])c3)o2)SC1=S    10 to 20%
